system: Epidermal growth factor receptor [L858R] (Homo sapiens, UniProt P00533, L858R)
Sequence (P00533 25-1210 L858R limits assumed): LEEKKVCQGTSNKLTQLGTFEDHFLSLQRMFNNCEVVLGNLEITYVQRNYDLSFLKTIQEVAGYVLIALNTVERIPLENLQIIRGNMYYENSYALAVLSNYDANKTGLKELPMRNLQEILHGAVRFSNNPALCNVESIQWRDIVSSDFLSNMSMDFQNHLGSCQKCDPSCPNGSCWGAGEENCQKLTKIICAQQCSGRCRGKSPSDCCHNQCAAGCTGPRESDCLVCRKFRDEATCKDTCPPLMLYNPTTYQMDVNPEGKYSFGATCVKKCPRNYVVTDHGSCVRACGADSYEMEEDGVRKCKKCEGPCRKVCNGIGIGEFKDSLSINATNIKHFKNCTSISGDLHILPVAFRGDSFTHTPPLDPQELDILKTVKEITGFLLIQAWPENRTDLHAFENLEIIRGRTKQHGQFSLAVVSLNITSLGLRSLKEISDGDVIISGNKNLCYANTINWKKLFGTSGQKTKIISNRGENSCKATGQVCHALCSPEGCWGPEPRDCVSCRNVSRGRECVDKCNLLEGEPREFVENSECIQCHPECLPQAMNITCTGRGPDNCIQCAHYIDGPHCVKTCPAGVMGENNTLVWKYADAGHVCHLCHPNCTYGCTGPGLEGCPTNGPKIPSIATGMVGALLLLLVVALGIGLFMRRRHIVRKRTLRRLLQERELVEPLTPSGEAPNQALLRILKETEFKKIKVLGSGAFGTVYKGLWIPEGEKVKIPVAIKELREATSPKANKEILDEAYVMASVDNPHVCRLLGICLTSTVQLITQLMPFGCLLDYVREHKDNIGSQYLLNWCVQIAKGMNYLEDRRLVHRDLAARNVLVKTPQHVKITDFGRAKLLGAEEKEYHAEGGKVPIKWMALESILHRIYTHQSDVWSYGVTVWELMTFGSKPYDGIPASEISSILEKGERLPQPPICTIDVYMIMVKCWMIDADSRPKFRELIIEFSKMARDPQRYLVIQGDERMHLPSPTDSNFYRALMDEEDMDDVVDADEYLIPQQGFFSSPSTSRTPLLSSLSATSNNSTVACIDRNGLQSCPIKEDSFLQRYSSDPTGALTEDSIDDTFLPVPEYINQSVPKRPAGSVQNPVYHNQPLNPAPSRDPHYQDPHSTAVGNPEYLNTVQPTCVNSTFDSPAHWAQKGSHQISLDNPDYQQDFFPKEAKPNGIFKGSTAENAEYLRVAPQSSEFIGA
measurement protocol: Biochemical Assay
outcome measure: pIC50
Bear in mind: pIC50 is minus log10 of a mol/L concentration; give just that figure.

Use these answered entries as a reference point.
compound	pIC50
CN1CCC(NC(=O)c2ccc3c(c2)/C=C/c2n[nH]c4cnc(cc24)-c2cnn(C)c2COCCO3)CC1 [US20240182487, Compound 93]	8.14
CN(C)CCNC(=O)c1ccc2c(c1)/C=C/c1n[nH]c3cnc(cc13)-c1cnn(C)c1COCCO2 [US20240182487, Compound 90]	7.65
Cc1ccc2c(n1)/C=C/c1n[nH]c3cnc(nc13)-c1cnn(C)c1C(C)OCCO2 (centres undefined) [US20240182487, Compound 65]	6.85
CN1CC[C@H](NC(=O)c2ccc3c(c2)OCCCOc2c(cnn2C)-c2cc4c(n[nH]c4cn2)/C=C/3)C1 [US20240182487, Compound 88]	8.39
Cn1ncc2c1COCCOc1ccccc1/C=C/c1n[nH]c3cnc-2nc13 [US20240182487, Compound 16]	6.46

Query: Quick check: pIC50 of CNC(=O)c1ccc2c(c1)/C=C/c1n[nH]c3cnc(cc13)-c1cnn(C)c1OCCCO2 [US20240182487, Compound 86] ?
Response: 8.31

Query: Another compound to look at: CN1CCOCCN(c2ccc(F)c(Cl)c2)c2cc3c(n[nH]c3cn2)/C=C/c2cn(C)nc2C1=O [US20240182487, Compound 99]
Response: 7.59

Query: Another compound to look at: CN1CC[C@@H](NC(=O)c2ccc3c(c2)OCCOCc2c(cnn2C)-c2cc4c(n[nH]c4cn2)/C=C/3)C1 [US20240182487, Compound 87]
Response: 7.79

Query: Another compound to look at: CN1CCN(C(=O)c2ccc3c(c2)/C=C/c2n[nH]c4cnc(cc24)-c2cnn(C)c2COCCO3)CC1 [US20240182487, Compound 96]
Response: 6.33

Query: Another compound to look at: COC(=O)c1ccc2c(c1)/C=C/c1n[nH]c3cnc(cc13)-c1cnn(C)c1COCCO2 [US20240182487, Compound 75]
Response: 6.78

Query: Another compound to look at: COC(=O)c1ccc2c(c1)OCCCOc1c(cnn1C)-c1cc3c(n[nH]c3cn1)/C=C/2 [US20240182487, Compound 67]
Response: 5.76

Query: Another compound to look at: CN1CCC(CNC(=O)c2ccc3c(c2)/C=C/c2n[nH]c4cnc(cc24)-c2cnn(C)c2OCCCO3)CC1 [US20240182487, Compound 76]
Response: 8.92

Query: Another compound to look at: CN(C)CCNC(=O)c1ccc2c(c1)OCCCOc1c(cnn1C)-c1cc3c(n[nH]c3cn1)/C=C/2 [US20240182487, Compound 74]
Response: 8.55

Query: Another compound to look at: Cc1ccc2c(n1)/C=C/c1n[nH]c3cnc(cc13)-c1cnn(C)c1C(C)OCCO2 (centres undefined) [US20240182487, Compound 95]
Response: 7.13
